Data provenance: patent US20070031328A1

assay: Partition coefficients, 1-octanol/buffer; assay type: physicochemical; conditions: 1-octanol/buffer; log of partition coefficient between 1-Octanol and buffer (0.1 M phosphate, pH 7.4); read-out: logP

molecule | logP
CN(C)c1ccc(-c2cn3cc(OCCOCCOCCF)ccc3n2)cc1 [Compound 12c] | 2.69
CNc1ccc(-c2nc3ccc(OCCOCCOCCF)cc3s2)cc1 | 3.04
CNc1ccc(-c2nc3ccc(OCCOCCOCCOCCOCCOCCF)cc3s2)cc1 | 2.99
CNc1ccc(-c2nc3ccc(OCCOCCF)cc3s2)cc1 | 3.04
CN(C)c1ccc(-c2cn3cc(I)ccc3n2)cc1 [IMPY, reference compound] | 2.19
CN(C)c1ccc(C=Cc2nc3ccc(OCCOCCOCCF)cc3o2)cc1 | 2.93
